target: UniProt:Q02750; experiment: In vitro MEK1 inhibition assay (ADP-Glo kinase assay); conditions: recombinant GST-MEK1, GST-ERK2, 10 µM ATP, mean value ± SD; read-out: MEK1 inhibitory activity IC50 value
Sequence (Q02750 whole entry): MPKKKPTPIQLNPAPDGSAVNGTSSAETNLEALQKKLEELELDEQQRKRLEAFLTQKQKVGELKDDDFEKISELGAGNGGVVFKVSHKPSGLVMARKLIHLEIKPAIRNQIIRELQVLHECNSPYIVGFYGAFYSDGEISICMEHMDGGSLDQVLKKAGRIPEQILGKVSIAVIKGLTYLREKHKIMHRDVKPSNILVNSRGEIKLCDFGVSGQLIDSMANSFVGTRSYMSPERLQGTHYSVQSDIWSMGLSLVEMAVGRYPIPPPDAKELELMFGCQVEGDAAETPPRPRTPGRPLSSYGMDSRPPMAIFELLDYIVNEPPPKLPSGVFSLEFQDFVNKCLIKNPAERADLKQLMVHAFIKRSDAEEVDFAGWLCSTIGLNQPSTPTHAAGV
Listed next: entries and their corresponding IC50.

COC(=O)C1(C)CCCC2(C)c3ccc(C(C)C)cc3-c3c(c4cc(C(C)C)ccc4n3CCN3CCNCC3)C12 (stereo not drawn) [Compound 10d]	> 20 µM
COC(=O)C1(C)CCCC2(C)c3ccc(C(C)C)cc3-c3c(c4cccc(C)c4n3CCN3CCNCC3)C12 (stereo not drawn) [Compound 10b]	> 20 µM

The value of IC50 measured for the molecule COC(=O)C1(C)CCCC2(C)c3ccc(C(C)C)cc3-c3c(c4cc(F)ccc4n3CCN3CCNCC3)C12 (stereo not drawn) [Compound 10i] turned out to be > 20 µM

Reference source: paper PMC6720511
